Attribution: patent US20230340128A1

Listed next: entries and their corresponding pKd.
- tested-on: human mesothelin (MSLN) (human) (UniProt Q13421)
- assay-notes: BLI (Octet), bsAb in 1+1 Fab-scFv-Fc format
Reminder that pKd is minus the log10 of a molar concentration.

binder	pKd
XENP32557 (bispecific antibody, part only; not given: anti-CD3 scFv-Fc arm, constant regions, V domains shown, not shown: another chain or arm of the molecule; a dimerising Fc or GST; small tags and cut ends) VH: QVQLVQSGAEVKKPGASVKVSCKASGYTFTSYWMHWVRQAPGQGLEWMGMIHPNSDNTIYYEKFQGRVTMTVDKSISTAYMELSRLRSDDTAVYYCAIIISPVVPKFDYWGQGTLVTVSS VL: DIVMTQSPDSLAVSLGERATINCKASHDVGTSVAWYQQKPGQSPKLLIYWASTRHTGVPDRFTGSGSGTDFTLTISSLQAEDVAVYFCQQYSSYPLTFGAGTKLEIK	9.14
XENP32564 (bispecific antibody, part only; not given: anti-CD3 scFv-Fc arm, constant regions, V domains shown, not shown: another chain or arm of the molecule; a dimerising Fc or GST; small tags and cut ends) VH: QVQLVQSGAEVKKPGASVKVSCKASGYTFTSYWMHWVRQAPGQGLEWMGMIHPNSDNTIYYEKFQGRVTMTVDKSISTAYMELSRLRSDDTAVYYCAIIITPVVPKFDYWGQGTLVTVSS VL: DIVMTQSPDSLAVSLGERATINCKASHDVGTSLAWYQQKPGQSPKLLIYWASTRHTGVPDRFTGSGSGTDFTLTISSLQAEDVAVYFCQQYSSYPLTFGAGTKLEIK	10.06
XENP32550 (bispecific antibody, part only; not given: anti-CD3 scFv-Fc arm, constant regions, V domains shown, not shown: another chain or arm of the molecule; a dimerising Fc or GST; small tags and cut ends) VH: QVQLVQSGAEVKKPGASVKVSCKASGYTFTGYWMHWVRQAPGQGLEWMGMIHPNSDNTIYYEKFQGRVTMTVDKSISTAYMELSRLRSDDTAVYYCAIIITPVVPKFDYWGQGTLVTVSS VL: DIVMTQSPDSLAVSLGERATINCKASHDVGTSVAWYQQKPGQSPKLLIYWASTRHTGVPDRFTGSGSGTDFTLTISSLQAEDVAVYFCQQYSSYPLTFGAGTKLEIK	9.22
XENP32569 (bispecific antibody, part only; not given: anti-CD3 scFv-Fc arm, constant regions, V domains shown, not shown: another chain or arm of the molecule; a dimerising Fc or GST; small tags and cut ends) VH: QVQLVQSGAEVKKPGASVKVSCKASGYTFTSYWMHWVRQAPGQGLEWMGMIHPQSDNTIYYEKFQGRVTMTVDKSISTAYMELSRLRSDDTAVYYCAIIITPVVPKFDYWGQGTLVTVSS VL: DIVMTQSPDSLAVSLGERATINCKASHSVGTSVAWYQQKPGQSPKLLIYWASTRHTGVPDRFTGSGSGTDFTLTISSLQAEDVAVYFCQQYSSYPLTFGAGTKLEIK	9.87

Now look at this one.
pKd for XENP32553 (bispecific antibody, part only; not given: anti-CD3 scFv-Fc arm, constant regions, V domains shown, not shown: another chain or arm of the molecule; a dimerising Fc or GST; small tags and cut ends) VH: QVQLVQSGAEVKKPGASVKVSCKASGYTFTSYWMHWVRQAPGQGLEWMGMINPNSDNTIYYEKFQGRVTMTVDKSISTAYMELSRLRSDDTAVYYCAIIITPVVPKFDYWGQGTLVTVSS VL: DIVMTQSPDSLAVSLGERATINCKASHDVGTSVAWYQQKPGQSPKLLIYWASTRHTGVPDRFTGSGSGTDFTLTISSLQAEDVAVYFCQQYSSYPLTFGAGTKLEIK ?
9.16
